System: HBV in 2.2.15 cells
Test: 2.2.15 cells: viral product in cell lysates quantified via quantitative real time PCR
Assay type: cell-based, hepatitis B virus (HBV)
Details: Hepatitis B virus, 120 h, day 5 post treatment, 50% reduction of viral product vs no drug controls, readout (qPCR, HBsAg or HBeAg) not specified for the column
pEC50: −log10 of the molar value.
Quick reference: pEC50 of the listed items.

[
  {
    "molecule": "CC(C)(C)[C@@H]1Cn2ncc(-c3cccc(F)c3)c2-c2cc(=O)c(C(=O)O)cn21 [Example 103]",
    "pEC50": "> 7.00"
  },
  {
    "molecule": "CC(C)[C@@H]1Cn2nc(C3CC3)c(-c3cnsc3)c2-c2cc(=O)c(C(=O)O)cn21 [Example 138]",
    "pEC50": "> 7.00"
  },
  {
    "molecule": "CC(C)[C@@H]1Cn2nc(-c3cccnc3)c(-c3cccnc3)c2-c2cc(=O)c(C(=O)O)cn21 [Example 177]",
    "pEC50": "6.00 to 6.70"
  },
  {
    "molecule": "COc1cccc(-c2c(C3CC3)nn3c2-c2cc(=O)c(C(=O)O)cn2[C@H](C(C)(C)C)C3)c1 [Example 157]",
    "pEC50": "> 7.00"
  }
]

Let us examine a further case.
In: Returns the measured pEC50 for the input molecule. Input: CC(C)[C@@H]1Cn2nc(-c3ccc(O)cc3)c(-c3ccc(O)cc3)c2-c2c(F)c(=O)c(C(=O)O)cn21 [Example 191]
Out: > 7.00
